apparent KD of K4 kissing-loop reporter listing for selected sequences.
System: K4 kissing-loop RNA reporter;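 also: bound reporter read as fluorescence of individual clusters on recovered sequencing chips by microscopy, with normalized cluster intensities fitted with a binding model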
Test: apparent KD of K4 kissing-loop reporter; higher = weaker reporter binding
Details: Eterna round: R107; input ligand: FMN 200 uM
Expressed in µM, but write only the number.

- sequence_content: "UGAUACCAGACGGCCGCCACUCCCGUAAGUCAAAGACUUACGAAGAAGGUUUUUUAGUGAUGUUGGAGGACCGGGUCUGGUAUCU [FiskerMod 19 - Jieux - Exclusion - Tryptophan B]"
  recorded_measurement: 0.258
- sequence_content: "GGAUAGGACAGAGGAUAUCUCUAAAGAGGCAAGAAAACUUGUCUCAGAGAUGACUCAGUGAUGUUGAGAGAAGGCUGUCCUAUCG [FmnBX 7 - #SwitchBubble #StaticStem]"
  recorded_measurement: 0.425
- sequence_content: "AUUAAUUUCAGAGGAUAUCGUGAUUUUGUUUAAUUUAUUCAUUUGUGCAGUGAUGUUGCUAAUAUUCGAGAAGGCUGAUUUAUAA [whbob_Ex_FMNB__2th225]"
  recorded_measurement: 0.161

Incoming: Data request, read-out apparent KD of K4 kissing-loop reporter, for CGGCUCAAUCCUAGUAUUAAGAGGGAGUUGCGAGGACCGGUACGGCCGCCACUCGAAGUAGUUUGGCCAGUGAUGUUGGUCUUAC [Mabeleon]
Outgoing: 0.203

Incoming: Consider the sequence UGGUAUAGUGAUGUUAUACCACUACCAGAUACCAGUGUAACAUUACGCCCUUGGCAGCUGAUCAGGGAACAUAUGGAGACAUAUG [Theo A Mod astro A#6] and give its measured apparent KD of K4 kissing-loop reporter.
Outgoing: 0.318

Incoming: Please give the measured apparent KD of K4 kissing-loop reporter for this sequence: AAGUAAUUAAUAAUUUAUAUAAGUUAAACAGAGGAUAUGCAUUAUUGCAGAAGGCUGAAUGCAGUGAUGUUGCAAUGAUUAUUUA [JR_SSFMNA_Sub001]
Outgoing: 0.0189

###

The following sequences are shown together with reported apparent KD of MS2 coat protein values.
System: MS2 coat protein
Assay: apparent KD of MS2 coat protein; designed switch direction (-1 OFF switch, 1 ON switch): 1; higher = weaker reporter binding
Conditions: input ligand: microRNA oligo, concentration not stated
State the answer as a number, implicitly in nM.

Before answering, review these 4 worked examples.
- sequence_content: "AUGCCAAAAGGAGGAUAUGGAGCCUUAUUGGCUCCAGAAGGCUUGACAUGAGGAUCACCCAUGUGGCAGUGGUCUAAUGACCAC [Eli NG1ss - 43] (Eterna round: R96, puzzle: Same State NG 1)"
  recorded_measurement: 13.7
- sequence_content: "GGAAACAAGAGAGGAUAUGCAGAGGAUCACCCUGCAGAAGGCUCAAAAGAGAGGAUAUGCAGAGGAUCACCCUGCAGAAGGCUC [pwkr ssNG DX.27] (Eterna round: R96, puzzle: Same State NG 1)"
  recorded_measurement: 11.2
- sequence_content: "UGGCUCAGAGCAGGAUAUAUGUAAUAACAUGAGGAUCACCCAUGUGUCGAGCUUCGGCUCGACACAUAGAAGGGCUCUGAGCCU [SSNG2/2-B3] (Eterna round: R96, puzzle: Same State NG 2)"
  recorded_measurement: 28.8
- sequence_content: "CCGUAAUAUGGAGGAUAUGGAGCCUUAUUGGCUCCAGAAGGUCAUAAAACAUGAGGAUCACCCAUGUCGGCGGUCAAUAGACCG [Eli NG1ss - 77] (Eterna round: R96, puzzle: Same State NG 1)"
  recorded_measurement: 42.6

// below: apparent KD of MS2 coat protein requested for another sequence
Incoming: Record lookup: for MS2 coat protein, what apparent KD of MS2 coat protein belongs to AUAAAACAUGAGGAUCACCCAUGUCAACAAAAUCGAGGAUAUGGACAGACUUCGGUCUGUCCAGAAGGCGAAUAAU [salish99_ss1_r3_100] (Eterna round: R96, puzzle: Same State 1) ?
Outgoing: 12.7

###

// reported apparent KD of MS2 coat protein per item
Test system: MS2 coat protein
Assay: apparent KD of MS2 coat protein; higher = weaker reporter binding
Settings: Eterna round: R101; input ligand: FMN 200 uM
Hi! Could you send only the number? It should be in nM, unit omitted.

Reference set, count: 3
- sequence_content: "CCUGCACUUCAAGGAUAUCCAGUCGUUUCGACUGGAGAAGGUGAGGAUCACCCACCUAGCCUGACGUUUGUCAGGCAUGCAGGU [#AddUracilToBrourdLoops 3 - Jieux - Exclusion NG1] (puzzle (switch architecture): Exclusion NG 1)"
  recorded_measurement: 8.78
- sequence_content: "UAAAUAAAUCCUAGAGGAUCACCCUAGGAUAUGAGGCUGCACCUCGGAUAAUCCGAGGUGCAGCCUCAGAAGGAGGGUAAUAAA [#SharedSequence - SLExNG3: 1-2] (puzzle (switch architecture): Small Loop Exclusion NG 3)"
  recorded_measurement: 43.1
- sequence_content: "GGUCGACCUCAAGGAUAUGGACUGCUUUGCAGUCCAGAAGGUGAGGAUCACCCAUCUACGGUCAGGUUUCUGACCGAUCGACCU [#AddUracilToBrourdLoops 6 - Jieux - Exclusion NG1] (puzzle (switch architecture): Exclusion NG 1)"
  recorded_measurement: 260

Turning to the following sequence.
Incoming: State its apparent KD of MS2 coat protein on MS2 coat protein: GGUCGACCUCAAGGAUAUGGACUGCUUUGCAGUCCAGAAGGUGAGGAUCACCCACCUACGGUCAGGUUUCUGACCGAUCGACCU [#AddUracilToBrourdLoops 2 - Jieux - Exclusion NG1] (puzzle (switch architecture): Exclusion NG 1)
Outgoing: 79.2

###

System: MS2 coat protein
Assay: apparent KD of MS2 coat protein; designed switch direction (-1 OFF switch, 1 ON switch): 1; higher = weaker reporter binding
Details: input ligand: microRNA oligo, concentration not stated
outcome_measure: apparent KD of MS2 coat protein
Please append the unit to your numeric answer.

- sequence_content: "AAAAGACAUGAGGAUCACCCAUGUGAAAACAUACAAGGAUAUGUGUGGAAACCGUACUAUACAGAAGGUGUAUGUC [SS1 - 85] (Eterna round: R96, puzzle: Same State 1)"
  target: "MS2 coat protein"
  apparent KD of MS2 coat protein: "25.1 nM"
- sequence_content: "UAUUUAAUCAUAGGAUAUAGAGUGAAAUUUGGACUAGAAGGAUGUAACAUGAGGAUCACCCAUGUGGUAAGUGGGACACAGUGU [JR_SSNG1_Sub094] (Eterna round: R96, puzzle: Same State NG 1)"
  target: "MS2 coat protein"
  apparent KD of MS2 coat protein: "85.5 nM"
- sequence_content: "CCGUUCAAUAAACAUGAGGAUCACCCAUGUGAUAAUAAGGGUGAGGAUAUGCAUCUGAAACAGGUGCAGAAGGCAUAAGAGCGG [JL SSNG3 3.91] (Eterna round: R96, puzzle: Same State NG 3)"
  target: "MS2 coat protein"
  apparent KD of MS2 coat protein: "169 nM"
- sequence_content: "GCCAACUUAUGAGGAUAUGGCACCUUAUUGGUGCCAGAAGGCAUGUGAAUUCACAUGAGGAUCACCCAUGUAUUAUAGUUGGCA [Fiskers NG1ss - 20] (Eterna round: R96, puzzle: Same State NG 1)"
  target: "MS2 coat protein"
  apparent KD of MS2 coat protein: "221 nM"

As a next step, examine the sequence that follows.
Incoming: What measured apparent KD of MS2 coat protein goes with GCUCGACUGAUGGCCUACAUGAGGAUCACCCAUGUGAUUGGGCAGGAUAUCUAGAUGCAGGAUGUAGAGAAGGGCCGGUCGAGC [SameState NG3 #46] (Eterna round: R96, puzzle: Same State NG 3) ?
Outgoing: 501 nM

###

Test system: MS2 coat protein
Assay: apparent KD of MS2 coat protein; designed switch direction (-1 OFF switch, 1 ON switch): 1; higher = weaker reporter binding
Conditions: input ligand: none
Criterion: apparent KD of MS2 coat protein meeting or surpassing 0.2 µM. Met: 1.0. Not met: 0.0.

Example entries begin here.
- sequence_content: "ACAUGAGACACAGGAUAUCAUGUACCUACAUGUGACAUGAGGAUCACCCAUGUGGUAAGUAUGACUGAGAAGGGUGAGAUAUGU [Equivalance 89 - Jieux - Same State NG 2] (Eterna round: R96, puzzle: Same State NG 2)"
  class_name: 1.0
- sequence_content: "GCUCGACGUAUUGUUUACAUGAGGAUCACCCAUGUAGGUGCGAAGGAUAUCUACGUGUUUCAUGUAGAGAAGGUCGUGUCGAGC [SameState NG3 #92] (Eterna round: R96, puzzle: Same State NG 3)"
  class_name: 0.0
- sequence_content: "UUAAUGAUGUAAGGAUAUACAUGAGGAAUUCUCGUAGAAGGUACAUGACAUGAGGAUCACCCAUGUAUCGCUCCGUAGAGCGUA [JL SSNG1 1.12] (Eterna round: R96, puzzle: Same State NG 1)"
  class_name: 0.0
- sequence_content: "GGCAGGUGCAGGCUUGCUUGCACCUGGAAACAUGAGGAUCACCCAUGUUUGGGACAAGCUUUGCUCCUCGUCUUGUC [JL ViennaUCT Isusreraar mod 2] (Eterna round: R96, puzzle: Sensor for hsa-mir-208a)"
  class_name: 0.0
- sequence_content: "GCCGCGUUUCGCGCCUACAUGAGGAUCACCCAUGUUUGUAGGCAGGAUAUCGUCCGCUCUGCGGGCGAGAAGGGCUGUUGUGGG [salish99_SSNG3_R04_023] (Eterna round: R96, puzzle: Same State NG 3)"
  class_name: 0.0
- sequence_content: "GCGGAGAGGUAAGGAUAUCCAUGGAAGAAACAUGAGGAUCACCCAUGUAGGAAGAAGACUAGGAGGGAGAAGGUACCGGGACGC [AK SSNG2-V2-20.1] (Eterna round: R96, puzzle: Same State NG 2)"
  class_name: 0.0

Incoming: Please indicate if the recorded apparent KD of MS2 coat protein for CUGCUCGUGUGAGGAUAUGCCGCCGUUUCGGCUGCAGAAGGUGCUACGUUACAUGAGGAUCACCCAUGUCUCUGUUGUUUCGUG [salish99_SSNG1_r04_944] (Eterna round: R96, puzzle: Same State NG 1) meets or exceeds 0.2 µM.
Outgoing: 0.0

Reference source: the supplement of paper PMC9170038
